# SYSTEM NAME: FLT3 (Homo sapiens)
# Construct: made in house
# Sequence (P36888 27-993): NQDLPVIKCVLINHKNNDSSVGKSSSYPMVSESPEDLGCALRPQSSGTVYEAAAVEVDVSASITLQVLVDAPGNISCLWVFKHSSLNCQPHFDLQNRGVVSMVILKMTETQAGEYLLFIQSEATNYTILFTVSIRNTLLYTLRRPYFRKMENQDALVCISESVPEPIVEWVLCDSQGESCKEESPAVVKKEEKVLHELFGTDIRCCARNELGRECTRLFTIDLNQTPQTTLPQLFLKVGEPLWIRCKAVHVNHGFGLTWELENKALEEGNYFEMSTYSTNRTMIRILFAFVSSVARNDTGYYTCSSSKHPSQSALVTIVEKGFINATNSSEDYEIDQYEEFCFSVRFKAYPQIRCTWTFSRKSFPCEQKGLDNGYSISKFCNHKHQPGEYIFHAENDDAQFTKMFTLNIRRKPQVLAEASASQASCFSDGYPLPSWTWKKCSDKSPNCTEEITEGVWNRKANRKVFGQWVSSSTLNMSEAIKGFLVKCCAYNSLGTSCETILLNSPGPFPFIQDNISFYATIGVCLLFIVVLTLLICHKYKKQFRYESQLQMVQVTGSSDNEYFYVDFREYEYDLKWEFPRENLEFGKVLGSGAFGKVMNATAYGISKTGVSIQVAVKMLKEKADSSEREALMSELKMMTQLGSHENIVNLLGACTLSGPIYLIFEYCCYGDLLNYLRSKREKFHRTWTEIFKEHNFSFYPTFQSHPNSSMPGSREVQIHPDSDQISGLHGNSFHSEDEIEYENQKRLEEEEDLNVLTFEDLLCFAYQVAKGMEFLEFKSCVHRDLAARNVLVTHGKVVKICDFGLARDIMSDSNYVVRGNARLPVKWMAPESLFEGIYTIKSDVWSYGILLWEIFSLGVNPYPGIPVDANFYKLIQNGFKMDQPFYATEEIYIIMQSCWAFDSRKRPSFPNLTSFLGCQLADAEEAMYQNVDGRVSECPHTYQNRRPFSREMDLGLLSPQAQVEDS
# MEASUREMENT DESCRIPTION: Competition binding assay, FLT3 Kd
Item-by-item account of Kd

Just so you know, measured Kd for "COc1cc2c(cc1Br)ncn2Cc1ccc2nc(N[C@@H]3CCCC[C@H]3O)sc2c1" came out at 200 to 1000 nM

Just so you know, measured Kd for "CS(=O)(=O)c1cnc2c(c1)ncn2Cc1ccc2nc(N[C@@H]3CCCC[C@H]3O)sc2c1" came out at ≤ 200 nM

* * *

# SYSTEM NAME: KIT (Homo sapiens)
# Construct: made in house
# Sequence (P10721 26-976): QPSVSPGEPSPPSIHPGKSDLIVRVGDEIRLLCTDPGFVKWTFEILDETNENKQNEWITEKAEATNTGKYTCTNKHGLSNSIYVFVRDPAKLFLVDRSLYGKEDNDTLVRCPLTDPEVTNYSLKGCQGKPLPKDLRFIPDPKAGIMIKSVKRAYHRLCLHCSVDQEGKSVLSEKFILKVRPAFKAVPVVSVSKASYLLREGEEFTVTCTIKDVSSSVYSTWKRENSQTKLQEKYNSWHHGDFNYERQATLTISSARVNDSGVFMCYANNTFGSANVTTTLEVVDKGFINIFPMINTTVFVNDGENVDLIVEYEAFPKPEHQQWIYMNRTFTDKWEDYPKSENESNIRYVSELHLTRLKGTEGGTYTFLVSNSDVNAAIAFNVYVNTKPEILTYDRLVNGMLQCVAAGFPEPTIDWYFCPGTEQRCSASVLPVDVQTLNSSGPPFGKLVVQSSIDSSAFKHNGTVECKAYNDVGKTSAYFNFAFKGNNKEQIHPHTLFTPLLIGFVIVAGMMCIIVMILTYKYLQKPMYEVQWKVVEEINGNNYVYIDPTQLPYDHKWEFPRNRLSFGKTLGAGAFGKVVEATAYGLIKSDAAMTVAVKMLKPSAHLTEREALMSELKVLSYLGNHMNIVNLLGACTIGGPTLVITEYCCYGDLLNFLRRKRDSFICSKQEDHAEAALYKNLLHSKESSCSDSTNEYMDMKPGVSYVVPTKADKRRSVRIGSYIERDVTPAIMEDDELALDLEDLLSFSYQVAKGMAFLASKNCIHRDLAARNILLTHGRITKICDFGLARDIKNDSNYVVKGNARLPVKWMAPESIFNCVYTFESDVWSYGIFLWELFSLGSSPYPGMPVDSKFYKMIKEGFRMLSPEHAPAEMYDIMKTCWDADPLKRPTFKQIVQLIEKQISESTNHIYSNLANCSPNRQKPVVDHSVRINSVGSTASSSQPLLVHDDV
# MEASUREMENT DESCRIPTION: Competition binding assay, KIT Kd
# CONDITION NOTES: competition binding
# Experimental: Competition binding assays used herein were developed, validated and performed as described in Fabian et al., Nature Biotechnology 2005, 23, 329-336. […] Kds were determined using an eleven point threefold serial dilutions. […] The kinase concentration in the eluates was measured by quantitative PCR.
pKd: −log10 of the molar value. Structures can show the parent of a compound that is named as a salt.
METRIC NAME: pKd

> print(dat)
                                   compound  reported.measurement
1  O[C@@H]1CCCC[C@H]1Nc1nc2ccc(Cn3cnc4ccc(Br)cc43)cc2s1          6.30 to 7.00
2  O[C@@H]1CCCC[C@H]1Nc1nc2ccc(Cc3cnc4cc(-n5cncn5)ccn34)cc2s1          5.70 to 6.30

Just so you know, measured pKd for "Fc1cnc2c(c1)ncn2Cc1ccc2nc(N[C@@H]3CCCC[C@H]3Cl)sc2c1" came out at 6.30 to 7.00

Just so you know, measured pKd for CN(C)CC(=O)c1cnc2c(c1)ncn2Cc1ccc2nc(N[C@@H]3CCCC[C@H]3O)sc2c1 [Example 116, acetate salt] came out at 6.30 to 7.00
